# experimental.system: IKKβ (Homo sapiens, UniProt O14920)
# Construct: human recombinant IKKβ
# Sequence (O14920 1-756): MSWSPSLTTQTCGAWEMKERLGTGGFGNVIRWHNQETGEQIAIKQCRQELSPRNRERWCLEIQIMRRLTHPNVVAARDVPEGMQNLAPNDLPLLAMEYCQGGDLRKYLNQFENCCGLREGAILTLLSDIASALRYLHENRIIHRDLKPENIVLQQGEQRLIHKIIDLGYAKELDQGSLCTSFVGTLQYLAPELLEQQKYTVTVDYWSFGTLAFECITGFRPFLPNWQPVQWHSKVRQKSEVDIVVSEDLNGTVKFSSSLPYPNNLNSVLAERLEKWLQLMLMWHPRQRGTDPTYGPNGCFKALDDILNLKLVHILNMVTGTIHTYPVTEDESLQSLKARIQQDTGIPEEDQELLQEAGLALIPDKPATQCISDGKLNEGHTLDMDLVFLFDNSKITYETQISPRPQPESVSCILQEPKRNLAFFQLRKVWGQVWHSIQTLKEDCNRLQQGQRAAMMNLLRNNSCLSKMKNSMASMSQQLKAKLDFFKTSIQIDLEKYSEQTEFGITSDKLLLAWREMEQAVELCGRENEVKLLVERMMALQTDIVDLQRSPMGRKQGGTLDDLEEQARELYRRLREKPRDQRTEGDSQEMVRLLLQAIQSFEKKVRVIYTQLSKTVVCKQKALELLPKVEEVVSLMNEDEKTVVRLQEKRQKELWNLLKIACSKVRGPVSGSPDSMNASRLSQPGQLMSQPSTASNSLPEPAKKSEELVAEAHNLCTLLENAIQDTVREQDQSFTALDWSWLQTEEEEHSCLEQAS
# assay: ELISA-based K-LISA IKKβ kinase assay with GST-IκBα substrate
pIC50: −log10 of the molar value.
measure: pIC50

Q: Look up pIC50: O=C(O)c1ccccc1C(=O)NCCC(c1ccccc1)c1ccco1 (stereo not shown) [compound 1, benzoic acid derivative (1)]
A: ~4.30

meta.source: paper PMC3583241
